- Tested on: Rattus norvegicus
- assay-overview: Enhancement of prostaglandin E2 levels in serum of incubated whole blood at 1 hr after an oral dose of 1 mg/kg
- Type: functional
Below, each entry is listed alongside its reported x fold.

{"compound": "C/C(=C\\c1ccc(Cc2cccnc2)cc1)C(=O)O", "tested-system": "Rattus norvegicus", "x fold": 3.87}
{"compound": "O=C([O-])c1ccc2c(c1)CC(Cc1cncs1)C2.[Na+] (stereo not drawn)", "tested-system": "Rattus norvegicus", "x fold": 9.55}
{"compound": "O=C([O-])c1ccc2c(c1)CCC(Cc1cncs1)C2.[Na+] (stereo not drawn)", "tested-system": "Rattus norvegicus", "x fold": 5.26}

====

- Tested on: Rattus norvegicus
- assay-overview: Inhibition of thromboxane B2 production in whole blood of rat 45 min after intravenous injection of compound at 0.1 mg/kg
- Format: functional
- test-conditions: 0.75 h
Below, each entry is listed alongside its reported inhibition in vivo at 0.1 mg/kg.
result-type: inhibition in vivo at 0.1 mg/kg (%)

{"compound": "O=C([O-])c1cccc2c1CCCC2CCc1cncs1.[Na+] (stereo unspecified)", "unit-symbol": "%", "reported": 79}
{"compound": "O=C(O)c1ccc(OCCn2ccnc2)cc1", "unit-symbol": "%", "reported": 6}
{"compound": "Cc1c(Cn2ccnc2)c2ccccc2n1CCC(=O)O", "unit-symbol": "%", "reported": 46}
{"compound": "Cl.O=C(O)c1ccc2c(c1)CC(Cn1ccnc1)C2 (stereo unspecified)", "unit-symbol": "%", "reported": 60}
{"compound": "O=C(O)c1ccc2c(c1)CCCC2CCn1ccnc1 (stereo unspecified)", "unit-symbol": "%", "reported": 53}
{"compound": "O=C([O-])c1ccc2c(c1)CCC(Cc1cncs1)C2.[Na+] (stereo unspecified)", "unit-symbol": "%", "reported": 87}
{"compound": "Cl.O=C(O)c1ccc2c(c1)CCC(Cn1ccnc1)C2 (stereo unspecified)", "unit-symbol": "%", "reported": 93}
{"compound": "O=C([O-])c1ccc2c(c1)CC(Cc1cncs1)C2.[Na+] (stereo unspecified)", "unit-symbol": "%", "reported": 62}
{"compound": "Cl.O=C(O)C1Cc2ccc(Cn3ccnc3)cc2C1 (stereo unspecified)", "unit-symbol": "%", "reported": 46}
{"compound": "O=C(O)/C=C/c1ccc(Cn2ccnc2)cc1", "unit-symbol": "%", "reported": 72}
{"compound": "Cl.O=C(O)c1cccc2c1CCCC2CCn1ccnc1 (stereo unspecified)", "unit-symbol": "%", "reported": 74}

====

- Test system: Rattus norvegicus
- assay-overview: Inhibition of thromboxane B2 production in whole blood of rat 75 min after intravenous injection of compound at 0.1 mg/kg
- Format: functional
- test-conditions: 1.25 h

{"molecule": "O=C([O-])c1ccc2c(c1)CC(Cc1cncs1)C2.[Na+] (stereo not given)", "tested-system": "Rattus norvegicus", "inhibition in vivo at 0.1 mg/kg (%)": 26}
{"molecule": "Cc1c(Cn2ccnc2)c2ccccc2n1CCC(=O)O [DAZMEGREL]", "tested-system": "Rattus norvegicus", "inhibition in vivo at 0.1 mg/kg (%)": 29}
{"molecule": "O=C(O)c1ccc2c(c1)CCCC2CCn1ccnc1 (stereo not given)", "tested-system": "Rattus norvegicus", "inhibition in vivo at 0.1 mg/kg (%)": 46}
{"molecule": "O=C([O-])c1ccc2c(c1)CCC(Cc1cncs1)C2.[Na+] (stereo not given)", "tested-system": "Rattus norvegicus", "inhibition in vivo at 0.1 mg/kg (%)": 75}
{"molecule": "O=C(O)/C=C/c1ccc(Cn2ccnc2)cc1 [OZAGREL]", "tested-system": "Rattus norvegicus", "inhibition in vivo at 0.1 mg/kg (%)": 46}
{"molecule": "Cl.O=C(O)c1cccc2c1CCCC2CCn1ccnc1 (stereo not given)", "tested-system": "Rattus norvegicus", "inhibition in vivo at 0.1 mg/kg (%)": 64}
{"molecule": "O=C([O-])c1cccc2c1CCCC2CCc1cncs1.[Na+] (stereo not given)", "tested-system": "Rattus norvegicus", "inhibition in vivo at 0.1 mg/kg (%)": 67}
{"molecule": "Cl.O=C(O)C1Cc2ccc(Cn3ccnc3)cc2C1 (stereo not given)", "tested-system": "Rattus norvegicus", "inhibition in vivo at 0.1 mg/kg (%)": 32}
{"molecule": "Cl.O=C(O)c1ccc2c(c1)CCC(Cn1ccnc1)C2 (stereo not given)", "tested-system": "Rattus norvegicus", "inhibition in vivo at 0.1 mg/kg (%)": 88}
{"molecule": "Cl.O=C(O)c1ccc2c(c1)CC(Cn1ccnc1)C2 (stereo not given)", "tested-system": "Rattus norvegicus", "inhibition in vivo at 0.1 mg/kg (%)": 51}

====

- System: Rattus norvegicus
- assay-overview: Enhancement of prostaglandin E2 levels in serum of incubated whole blood at 1 hr after an oral dose of 1 mg/kg
- Type: functional
Below, each entry is listed alongside its reported x fold.
result-type: x fold

{"molecule": "O=C(O)c1ccc(OCCn2ccnc2)cc1", "reported": 3.91}
{"molecule": "O=C(O)c1ccc2c(c1)CCCC2CCn1ccnc1 (configuration not stated)", "reported": 10.05}
{"molecule": "Cc1c(Cn2ccnc2)c2ccccc2n1CCC(=O)O", "reported": 5.36}
{"molecule": "Cl.O=C(O)c1ccc2c(c1)CC(Cn1ccnc1)CC2 (configuration not stated)", "reported": 4.27}
{"molecule": "Cl.O=C(O)c1cccc2c1CCCC2CCn1ccnc1 (configuration not stated)", "reported": 5.88}
{"molecule": "Cl.O=C(O)c1ccc2c(c1)CCC(Cn1ccnc1)C2 (configuration not stated)", "reported": 5.9}
{"molecule": "O=C(O)/C=C/c1ccc(Cn2ccnc2)cc1", "reported": 4.8}
{"molecule": "O=C([O-])c1cccc2c1CCCC2CCc1cncs1.[Na+] (configuration not stated)", "reported": 5.63}
{"molecule": "Cl.O=C(O)c1ccc2c(c1)CC(Cn1ccnc1)C2 (configuration not stated)", "reported": 6.93}
{"molecule": "Cl.O=C(O)C1Cc2ccc(Cn3ccnc3)cc2C1 (configuration not stated)", "reported": 7.27}
{"molecule": "Cl.O=C(O)C1CCc2cc(Cn3ccnc3)ccc2C1 (configuration not stated)", "reported": 4.79}
{"molecule": "O=C([O-])C1CCc2cc(Cc3cncs3)ccc2C1.[Na+] (configuration not stated)", "reported": 5.91}
